# systemName: KMO mouse enzyme (Mus musculus, UniProt Q91WN4)
# Construct: KMO enzyme prepared at Evotec from mouse liver (4-6 weeks old) via mitochondria isolation; from tissue; host or cells: mouse liver (4-6 weeks old), mitochondria isolation, prepared at Evotec
# Sequence (Q91WN4 whole entry): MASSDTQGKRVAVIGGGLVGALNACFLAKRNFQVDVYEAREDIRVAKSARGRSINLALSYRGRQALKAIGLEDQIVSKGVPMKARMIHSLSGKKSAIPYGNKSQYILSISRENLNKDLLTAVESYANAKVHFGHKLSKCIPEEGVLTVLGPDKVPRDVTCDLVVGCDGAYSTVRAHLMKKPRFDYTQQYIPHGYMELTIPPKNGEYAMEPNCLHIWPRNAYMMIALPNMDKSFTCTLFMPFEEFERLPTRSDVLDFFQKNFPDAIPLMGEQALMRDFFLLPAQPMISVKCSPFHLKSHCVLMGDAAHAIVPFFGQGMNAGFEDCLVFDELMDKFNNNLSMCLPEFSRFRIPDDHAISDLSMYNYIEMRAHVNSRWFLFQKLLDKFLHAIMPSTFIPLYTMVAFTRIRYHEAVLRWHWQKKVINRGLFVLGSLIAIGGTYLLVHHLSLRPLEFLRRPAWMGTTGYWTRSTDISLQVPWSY
# assayInfo: KMO mouse enzyme assay: L-Kynurenine hydroxylation to 3-Hydroxy-Kynurenine monitored by LC/MS (MRM)
# Format: biochemical
# conditionInfo: compound at 10 μM; KMO enzyme from mouse liver mitochondria; read-out: INH.Mouse @ 10 μM

{"smilesString": "COC(=O)c1cc(-c2ccc(F)cc2F)ncn1", "inhibition at 10 µM (%)": 100}
{"smilesString": "O=C(c1cc(-c2ccc(Cl)c(Cl)c2)ncn1)N1CCc2cc(F)ccc21", "inhibition at 10 µM (%)": 100}
{"smilesString": "CN(C(=O)c1cc(-c2cccc(Cl)c2)ncn1)c1ccccc1", "inhibition at 10 µM (%)": 100}
{"smilesString": "O=C(NCc1cccnc1)c1cc(-c2cccc(Cl)c2)ncn1", "inhibition at 10 µM (%)": 96.7}
{"smilesString": "NC(=O)[C@H]1CCCN1C(=O)c1cc(-c2cccc(Cl)c2)ncn1", "inhibition at 10 µM (%)": 95.4}
{"smilesString": "O=C(Nc1cccnc1)c1cc(-c2cc(Cl)cc(Cl)c2)ncn1", "inhibition at 10 µM (%)": 72.2}
{"smilesString": "O=C(O)c1cc(-c2cc(C(F)(F)F)ccc2F)ncn1", "inhibition at 10 µM (%)": 80.3}
{"smilesString": "O=C(O)c1cc(-c2cccc(Cl)c2)ccn1", "inhibition at 10 µM (%)": 100}
{"smilesString": "Cc1ccc(N(C)C(=O)c2cc(-c3cccc(Cl)c3)ncn2)cc1", "inhibition at 10 µM (%)": 100}
{"smilesString": "COC(=O)c1ncnc(-c2ccc(Cl)c(Cl)c2)c1F", "inhibition at 10 µM (%)": 100}
{"smilesString": "CS(=O)(=O)Nc1cc(-c2ccc(Cl)c(Cl)c2)ncn1", "inhibition at 10 µM (%)": 51.2}
{"smilesString": "CCCNC(=O)c1cc(-c2cccc(Cl)c2)ncn1", "inhibition at 10 µM (%)": 72.4}
{"smilesString": "Cc1ccc(NC(=O)c2cc(-c3cccc(Cl)c3)ncn2)cc1", "inhibition at 10 µM (%)": 100}
{"smilesString": "O=C(O)c1cc(-c2cc(F)cc(C(F)(F)F)c2)ncn1", "inhibition at 10 µM (%)": 75.8}
{"smilesString": "CCNC(=O)c1cc(-c2cccc(Cl)c2)ncn1", "inhibition at 10 µM (%)": 100}
{"smilesString": "O=C(Nc1ccccc1)c1cc(-c2ccc(Cl)c(Cl)c2)ccn1", "inhibition at 10 µM (%)": 43.5}
{"smilesString": "Cc1ncccc1NC(=O)c1cc(-c2cccc(Cl)c2)ncn1", "inhibition at 10 µM (%)": 97.8}
{"smilesString": "O=C(Nc1ncco1)c1cc(-c2cccc(Cl)c2)ncn1", "inhibition at 10 µM (%)": 100}
{"smilesString": "Cc1ccc(NC(=O)c2cc(-c3ccc(Cl)c(Cl)c3)ncn2)cc1", "inhibition at 10 µM (%)": 100}
{"smilesString": "O=C(c1cc(-c2cc(Cl)cc(Cl)c2)ncn1)N1CCc2ccccc21", "inhibition at 10 µM (%)": 98.3}
{"smilesString": "O=C(Nc1ccc(C(F)(F)F)nc1)c1cc(-c2cccc(Cl)c2)ncn1", "inhibition at 10 µM (%)": 89.1}
{"smilesString": "Cn1ccc(NC(=O)c2cc(-c3cccc(Cl)c3)ncn2)n1", "inhibition at 10 µM (%)": 100}
{"smilesString": "CN(C)C(=O)c1cc(-c2cccc(Cl)c2)ncn1", "inhibition at 10 µM (%)": 100}
{"smilesString": "O=S(=O)(O)c1cc(-c2cccc(Cl)c2)ncn1", "inhibition at 10 µM (%)": 97.1}
{"smilesString": "COc1cccc(NC(=O)c2cc(-c3cccc(Cl)c3)ncn2)c1", "inhibition at 10 µM (%)": 97.1}
{"smilesString": "O=C(Nc1ncccn1)c1cc(-c2cccc(Cl)c2)ncn1", "inhibition at 10 µM (%)": 100}
{"smilesString": "CC(C)NC(=O)c1cc(-c2cccc(Cl)c2)ncn1", "inhibition at 10 µM (%)": 100}
{"smilesString": "NC(=O)[C@@H]1CCCN1C(=O)c1cc(-c2cccc(Cl)c2)ncn1", "inhibition at 10 µM (%)": 91.1}
{"smilesString": "Cc1ncccc1NC(=O)c1cc(-c2ccc(Cl)c(Cl)c2)ncn1", "inhibition at 10 µM (%)": 84.2}
{"smilesString": "O=C(Nc1ccon1)c1cc(-c2ccc(Cl)c(Cl)c2)ncn1", "inhibition at 10 µM (%)": 100}
